FYI, the data here is from ChEMBL document CHEMBL2396638.

- METHOD DESCRIPTION: Plasma concentration in Wistar rat at 100 mg/kg, po after 3 hrs
- Type: ADME, organism-based
- Design: dose 100 mg/kg, route oral
MEASUREMENT KIND: concentration at 3 h

- RECORD SMILES: "CCc1nc(Cl)c2n1CCN([C@@H](C(=O)NC)c1ccccc1)[C@H]2CCc1ccc(F)c(F)c1F"
  RESULT: "387 nM"
- RECORD SMILES: "CCc1nc(Cl)c2n1CCN([C@@H](C(=O)NC)c1ccccc1)[C@H]2CCc1ccc(C(F)(F)F)c(F)c1"
  RESULT: "9820 nM"
- RECORD SMILES: "CCc1nc(Cl)c2n1CCN([C@@H](C(=O)NC)c1ccccc1)[C@H]2CCc1cccc(C(F)(F)F)c1F"
  RESULT: "1860 nM"
- RECORD SMILES: "CCc1nc(Cl)c2n1CCN([C@@H](C(=O)NC)c1ccccc1)[C@H]2CCc1ccc(C(F)(F)F)c(Cl)c1"
  RESULT: "1600 nM"

---

- METHOD DESCRIPTION: Plasma concentration in Wistar rat at 100 mg/kg, po after 3 hrs
- Assay type: ADME, organism-based
- Design: dose 100 mg/kg, route oral

- RECORD SMILES: "CNC(=O)[C@@H](c1ccccc1)N1CCn2c(C3CC3)nc(Cl)c2[C@@H]1CCc1ccc(C(F)(F)F)c(F)c1"
  RESULT UNITS: "µM"
  concentration at 3 h: 6.8
- RECORD SMILES: "CCc1nc(Cl)c2n1CCN([C@@H](C(=O)NC)c1ccccc1)[C@H]2CCc1ccc(C(F)(F)F)cc1F"
  RESULT UNITS: "µM"
  concentration at 3 h: 6.42
- RECORD SMILES: "CNC(=O)[C@@H](c1ccccc1)N1CCn2c(C3CC3)nc(Cl)c2[C@@H]1CCc1ccc(C(F)(F)F)cc1F"
  RESULT UNITS: "µM"
  concentration at 3 h: 6.76
- RECORD SMILES: "CCc1nc(Cl)c2n1CCN([C@@H](C(=O)NC)c1ccccc1)[C@H]2CCc1ccc(C(F)(F)F)c(F)c1F"
  RESULT UNITS: "µM"
  concentration at 3 h: 6.77

---

- Test system: MDR1 (human)
- METHOD DESCRIPTION: Efflux ratio of apparent permeability […] to apical side in MDCK cells expressing human MDR1
- Type: ADME, cell-based, Canis lupus familiaris
- CONDITION: dog

- RECORD SMILES: "CCc1nc(Cl)c2n1CCN([C@@H](C(=O)NC)c1ccccc1)[C@H]2CCc1ccc(C(F)(F)F)c(F)c1"
  efflux ratio: 35

---

- STUDY TARGET: UniProt O43614
- Sequence (O43614 whole entry): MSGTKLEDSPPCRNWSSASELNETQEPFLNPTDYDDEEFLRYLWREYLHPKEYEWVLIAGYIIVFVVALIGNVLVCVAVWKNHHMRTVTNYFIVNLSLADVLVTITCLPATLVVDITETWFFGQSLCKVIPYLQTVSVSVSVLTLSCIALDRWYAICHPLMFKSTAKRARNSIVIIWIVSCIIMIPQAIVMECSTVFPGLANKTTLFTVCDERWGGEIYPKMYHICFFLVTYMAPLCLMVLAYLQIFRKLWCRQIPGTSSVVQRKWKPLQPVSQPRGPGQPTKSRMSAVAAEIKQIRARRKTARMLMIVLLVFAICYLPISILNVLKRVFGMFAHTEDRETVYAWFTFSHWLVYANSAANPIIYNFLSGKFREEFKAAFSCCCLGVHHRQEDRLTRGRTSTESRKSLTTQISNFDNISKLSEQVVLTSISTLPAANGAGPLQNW
- METHOD DESCRIPTION: Antagonist activity at human OX2R expressed in CHO cells assessed as inhibition of calcium mobilization by FLIPR assay
Kindly apply the following: yes (1) if IC50 is less than 10 nM, no (0) in every other case.

- RECORD SMILES: "CCc1nc(Cl)c2n1CCN([C@@H](C(=O)NC)c1ccccc1)[C@H]2CCc1cc(F)c(C(F)(F)F)c(F)c1"
  ANSWER LABEL: "yes (1)"
- RECORD SMILES: "CCc1nc(Cl)c2n1CCN([C@@H](C(=O)NC)c1ccccc1)[C@H]2CCc1ccc(C(F)(F)F)cc1F"
  ANSWER LABEL: "no (0)"
- RECORD SMILES: "CCc1nc(Cl)c2n1CCN([C@@H](C(=O)NC)c1ccccc1)[C@H]2CCc1ccc(OC(F)(F)F)cc1"
  ANSWER LABEL: "no (0)"
- RECORD SMILES: "CCc1nc(Cl)c2n1CCN([C@@H](C(=O)NC)c1ccccc1)[C@H]2COc1ccc(C(F)(F)F)cc1"
  ANSWER LABEL: "yes (1)"
- RECORD SMILES: "CCc1nc(Cl)c2n1CCN([C@@H](C(=O)NC)c1ccccc1)[C@H]2COc1cccc(C(F)(F)F)c1"
  ANSWER LABEL: "yes (1)"
- RECORD SMILES: "CCc1nc(Cl)c2n1CCN([C@@H](C(=O)NC)c1ccccc1)[C@H]2CCc1ccc(F)c(F)c1F"
  ANSWER LABEL: "yes (1)"
- RECORD SMILES: "CCc1nc(Cl)c2n1CCN([C@@H](C(=O)NC)c1ccccc1)[C@H]2CCc1ccc(C(F)(F)F)c(Cl)c1"
  ANSWER LABEL: "no (0)"
- RECORD SMILES: "CCc1nc(Cl)c2n1CCN([C@@H](C(=O)NC)c1ccccc1)[C@H]2CCc1ccc(C#N)cc1"
  ANSWER LABEL: "no (0)"

---

- METHOD DESCRIPTION: Ratio of drug level from brain to plasma in Wistar rat at 100 mg/kg, po after 3 hrs
- Type: ADME, organism-based
- Set-up: dose 100 mg/kg, route oral
- CONDITION: read-out: BPR
This section presents molecules with their documented Kp at 3 h values.

- RECORD SMILES: "CCc1nc(Cl)c2n1CCN([C@@H](C(=O)NC)c1ccccc1)[C@H]2CCc1ccc(C(F)(F)F)c(Cl)c1"
  Kp at 3 h: 0.08
- RECORD SMILES: "CCc1nc(Cl)c2n1CCN([C@@H](C(=O)NC)c1ccccc1)[C@H]2CCc1ccc(F)c(F)c1F"
  Kp at 3 h: 0.05
- RECORD SMILES: "CCc1nc(Cl)c2n1CCN([C@@H](C(=O)NC)c1ccccc1)[C@H]2CCc1cccc(C(F)(F)F)c1F"
  Kp at 3 h: 0.07
- RECORD SMILES: "CCc1nc(Cl)c2n1CCN([C@@H](C(=O)NC)c1ccccc1)[C@H]2CCc1ccc(C(F)(F)F)cc1F"
  Kp at 3 h: 0.06
- RECORD SMILES: "CNC(=O)[C@@H](c1ccccc1)N1CCn2c(C3CC3)nc(Cl)c2[C@@H]1CCc1ccc(C(F)(F)F)c(F)c1"
  Kp at 3 h: 0.07
- RECORD SMILES: "CNC(=O)[C@@H](c1ccccc1)N1CCn2c(C3CC3)nc(Cl)c2[C@@H]1CCc1ccc(C(F)(F)F)cc1F"
  Kp at 3 h: 0.05
- RECORD SMILES: "CCc1nc(Cl)c2n1CCN([C@@H](C(=O)NC)c1ccccc1)[C@H]2CCc1ccc(C(F)(F)F)c(F)c1"
  Kp at 3 h: 0.12
- RECORD SMILES: "CCc1nc(Cl)c2n1CCN([C@@H](C(=O)NC)c1ccccc1)[C@H]2CCc1ccc(C(F)(F)F)c(F)c1F"
  Kp at 3 h: 0.1

---

This section presents molecules with their documented pIC50 values.
- STUDY TARGET: Orexin/Hypocretin receptor type 1 (Homo sapiens)
- Sequence (O43613 whole entry): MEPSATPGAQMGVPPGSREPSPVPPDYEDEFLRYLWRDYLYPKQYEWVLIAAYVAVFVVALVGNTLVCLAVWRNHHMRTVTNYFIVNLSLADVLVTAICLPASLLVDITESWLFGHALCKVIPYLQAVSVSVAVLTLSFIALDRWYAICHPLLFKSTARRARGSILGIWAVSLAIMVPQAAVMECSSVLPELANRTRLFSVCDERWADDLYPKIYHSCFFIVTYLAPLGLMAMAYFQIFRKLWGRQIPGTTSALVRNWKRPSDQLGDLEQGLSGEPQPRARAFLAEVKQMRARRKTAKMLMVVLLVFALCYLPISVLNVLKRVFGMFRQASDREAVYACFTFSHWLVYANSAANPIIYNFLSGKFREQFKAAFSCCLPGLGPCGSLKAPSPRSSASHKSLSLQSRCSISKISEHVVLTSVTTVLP
- METHOD DESCRIPTION: Antagonist activity at human OX1R expressed in CHO cells assessed as inhibition of calcium mobilization by FLIPR assay
pIC50: −log10 of the molar value.

- RECORD SMILES: "CCc1nc(Cl)c2n1CCN([C@@H](C(=O)NC)c1ccccc1)[C@H]2CCc1ccc(OC(F)(F)F)cc1"
  pIC50: 6.69
- RECORD SMILES: "CCc1nc(Cl)c2n1CCN([C@@H](C(=O)NC)c1ccccc1)[C@H]2CCc1ccc(C(F)(F)F)c(F)c1"
  pIC50: 7.74
- RECORD SMILES: "CCc1nc(Cl)c2n1CCN([C@@H](C(=O)NC)c1ccccc1)[C@@H]2CCc1ccc(C(F)(F)F)c(F)c1"
  pIC50: 6.26
- RECORD SMILES: "CNC(=O)[C@@H](c1ccccc1)N1CCn2c(C3CC3)nc(Cl)c2[C@@H]1CCc1ccc(C(F)(F)F)c(F)c1"
  pIC50: 7.28
- RECORD SMILES: "CNC(=O)[C@@H](c1ccccc1)N1CCn2c(C3CC3)nc(Cl)c2[C@@H]1CCc1ccc(C(F)(F)F)cc1F"
  pIC50: 7.03
- RECORD SMILES: "CCc1nc(Cl)c2n1CCN([C@@H](C(=O)NC)c1ccccc1)[C@H]2CCc1cc(F)c(C(F)(F)F)cc1F"
  pIC50: 7.49
- RECORD SMILES: "CCc1nc(Cl)c2n1CCN([C@@H](C(=O)NC)c1ccccc1)[C@H]2CCc1cc(F)c(C(F)(F)F)c(F)c1"
  pIC50: 7.80
- RECORD SMILES: "CCc1nc(Cl)c2n1CCN([C@@H](C(=O)NC)c1ccccc1)[C@H]2CCc1ccc(F)c(C(F)(F)F)c1"
  pIC50: 6.42
- RECORD SMILES: "CNC(=O)[C@@H](c1ccccc1)N1CCn2c(C3CC3)nc(Cl)c2[C@@H]1CCc1ccc(C(F)(F)F)cc1"
  pIC50: 7.52
- RECORD SMILES: "CCc1nc(Cl)c2n1CCN([C@@H](C(=O)NC)c1ccccc1)[C@H]2CCc1ccc(C(F)(F)F)cc1F"
  pIC50: 7.35
- RECORD SMILES: "CCc1nc(Cl)c2n1CCN([C@@H](C(=O)NC)c1ccccc1)[C@H]2CCc1ccc(F)c(F)c1F"
  pIC50: 7.52
- RECORD SMILES: "CCc1nc(Cl)c2n1CCN([C@@H](C(=O)NC)c1ccccc1)[C@H]2COc1ccc(C(F)(F)F)cc1"
  pIC50: 6.37
- RECORD SMILES: "CCc1nc(Cl)c2n1CCN([C@@H](C(=O)NC)c1ccccc1)[C@H]2CCc1cccc(C(F)(F)F)c1F"
  pIC50: 7.80
- RECORD SMILES: "CCc1nc(Cl)c2n1CCN([C@@H](C(=O)NC)c1ccccc1)[C@H]2CCc1cccc(C(F)(F)F)c1"
  pIC50: 7.14
- RECORD SMILES: "CCc1nc(Cl)c2n1CCN([C@@H](C(=O)NC)c1ccccc1)[C@H]2CCc1ccc(C(F)(F)F)c(Cl)c1"
  pIC50: 7.70
- RECORD SMILES: "CCc1nc(Cl)c2n1CCN([C@@H](C(=O)NC)c1ccccc1)[C@H]2CCc1ccc(OC(F)F)cc1"
  pIC50: 7.13
